method.notes: Inhibition of PI4K3beta (unknown origin) assessed as hydrolysis of ATP for 60 mins by ADP-Glo kinase assay
Design: species or system Homo sapiens
property.name: IC50
# number then unit; no other words

A selection of reference data follows.
| structure | reported |
| --- | --- |
| COc1ccc(-c2c(C)nn3c(NCCNC(=O)C(C)C)cc(C)nc23)cc1OC | 120 nM |
| CC(=O)NCCNc1cc(Cl)nn2c(-c3ccc(F)c(C=O)c3)c(C)nc12 | 89 nM |
| COc1ccc(-c2c(C)nn3c(NCCOC(C)=O)cc(C)nc23)cc1OC | 67 nM |
| COc1ccc(-c2c(C)nn3c(NCCNS(C)(=O)=O)cc(C)nc23)cc1OC | 120 nM |
| COc1ccc(-c2c(C)nc3c(NCCN4CCOCC4)ccnn23)cc1OC | 93 nM |
| COc1ccc(-c2c(C)nc3c(NCCNC(C)=O)ccnn23)cc1OC | 92 nM |

Field: next compound
Per the record, `COc1ccc(-c2c(C)nn3c(NCCNC(C)=O)cc(C)nc23)cc1OC` has IC50 of 70 nM
